system: LOX IMVI melanoma; assay: NCI-60 one-dose screen, 48 h; settings: 10 µM unless noted
Compounds without any hit were thinned out: in the full panel of roughly 83,000, 20% have a hit. Calls of active or inactive are those of the source. How the source made its calls: active means growth percent below 10; inactive means the rest.
Give your call using only these classes: True = active, False = inactive

Request: Tell me the assay call for O=c1[nH]nc(-c2ccc(Br)cc2)cc1Cc1ccc(O)cc1 please.
Response: False

Request: Each compound tested received a call. Report the one for COc1cc(NCC(O)CN(CC(C)C)CC(C)C)c2nc(C)ccc2c1 (stereo not given) .
Response: False

Request: Tell me the recorded outcome of this test for O=C(Nc1ccc2ncnc(Nc3ccc(Oc4cccc(F)c4)c(Cl)c3)c2c1)c1ccc(CNCCO)cc1 .
Response: True

Request: What classification did COc1cc2nc(-c3ccc(-c4nn[nH]n4)cc3)[nH]c(=O)c2cc1OC end up with in this test?
Response: False

Request: What did the test return for COc1ccc(Cl)cc1NC(=O)c1c(NC(=O)C(F)(F)C(F)(F)F)sc2c1CCCCC2 ?
Response: False

Request: Per the assay record, what outcome was assigned to CCC(C)N(CCNc1cc(OC)cc2cccnc12)CCC(C)C (stereo not given) ?
Response: False

Request: Each compound tested received a call. Report the one for Brc1ccc(C2CC(c3cccc(Nc4ccncc4)c3)=NN2c2ccccc2)cc1 (stereo not given) .
Response: False

Request: In this assay, the call recorded for Cc1[nH]n(C(=O)c2ccncc2)c(=O)c1N=Nc1ccc(F)c(Cl)c1 was what?
Response: False

Request: Hello, I am checking results. What call was entered for O=C1Nc2ccccc2/C1=N/c1nc(-c2ccc(Cl)cc2)cs1 ?
Response: False

Request: Tell me the recorded outcome of this test for O=C(OC(OC(=O)c1cc(Cl)cc(Cl)c1)c1cccc2ccccc12)c1ccccc1 (stereo not given) .
Response: False
